# STUDY TARGET: C38A GSDMD (Homo sapiens, UniProt P57764, C38A)
# Sequence (P57764 1-484 C38A): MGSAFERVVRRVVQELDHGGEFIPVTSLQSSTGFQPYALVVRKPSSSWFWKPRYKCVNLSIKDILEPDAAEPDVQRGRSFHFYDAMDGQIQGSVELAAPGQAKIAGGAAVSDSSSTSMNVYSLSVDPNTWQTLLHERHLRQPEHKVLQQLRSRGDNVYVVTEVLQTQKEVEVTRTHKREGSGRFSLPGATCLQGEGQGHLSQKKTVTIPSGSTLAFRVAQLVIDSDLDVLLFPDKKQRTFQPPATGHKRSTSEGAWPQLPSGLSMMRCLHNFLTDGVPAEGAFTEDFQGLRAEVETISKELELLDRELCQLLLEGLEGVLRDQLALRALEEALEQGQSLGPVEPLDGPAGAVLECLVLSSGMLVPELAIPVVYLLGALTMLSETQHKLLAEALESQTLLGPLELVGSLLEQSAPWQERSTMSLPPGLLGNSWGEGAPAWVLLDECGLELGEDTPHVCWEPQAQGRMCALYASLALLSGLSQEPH
# ASSAY COMMENT: liposome leakage assay with C38A GSDMD
# Format: biochemical
# EXPERIMENTAL PARAMETERS: read-out: EC50 for activating GSDMD pore formation
pEC50: −log10 of the molar value.
QUANTITY NAME: pEC50

Observed pEC50, C38A GSDMD (Homo sapiens, UniProt P57764, C38A), CC(C)(C)Nc1nc2cc(Cl)c(Cl)cc2nc1S(C)(=O)=O : ~6.05

---

# STUDY TARGET: Human GSDMD (Homo sapiens, UniProt P57764)
# ASSAY COMMENT: time-resolved fluorogenic
# EXPERIMENTAL PARAMETERS: read-out: EC50 of liposome leakage; human GSDMD 0.3 μM, Tb3+/DPA fluorescence
QUANTITY NAME: EC50 (nM)
// return numeric value only (unit: nM, not printed)

Looking up CC(C)(C)Nc1nc2cc(Cl)c(Cl)cc2nc1S(C)(=O)=O , I see its EC50 listed as 700

---

Sequence of the target: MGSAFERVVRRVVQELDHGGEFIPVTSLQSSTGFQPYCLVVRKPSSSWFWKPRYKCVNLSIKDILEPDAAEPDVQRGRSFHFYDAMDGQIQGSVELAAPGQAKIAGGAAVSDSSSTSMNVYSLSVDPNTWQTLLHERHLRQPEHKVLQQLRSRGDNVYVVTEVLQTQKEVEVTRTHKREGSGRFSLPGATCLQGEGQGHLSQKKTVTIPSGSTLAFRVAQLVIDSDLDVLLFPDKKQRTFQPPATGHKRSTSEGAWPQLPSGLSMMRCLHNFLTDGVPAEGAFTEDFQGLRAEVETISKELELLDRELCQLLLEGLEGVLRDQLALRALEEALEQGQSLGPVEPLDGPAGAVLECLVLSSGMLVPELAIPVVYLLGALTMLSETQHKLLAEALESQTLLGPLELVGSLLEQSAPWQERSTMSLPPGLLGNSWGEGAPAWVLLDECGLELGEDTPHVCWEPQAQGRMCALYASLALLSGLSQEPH
QUANTITY NAME: Kd (nM)
// return numeric value only (unit: nM, not printed)

Looking up CC(C)(C)Nc1nc2cc(Cl)c(Cl)cc2nc1S(C)(=O)=O , I see its Kd listed as 1100
